- Tested on: 931267-113-T-J1-PDC multicell spheroid viability
- protocolDescription: Anticancer human tumor 931267-113-T-J1-PDC patient-derived colon adenocarcinoma cell line growth inhibition [PI3K]
- conditionSummary: second compound 1 µM; first compound 3.16 µM; hits give low values
In this scheme, each record receives a class according to its viability, T/C; the ranges are c1 (below 60%), c2 (60% to below 80%), c3 (80% or more)

Please review the entries below; each comes with its answer.
CC1(C)CCC(Nc2ncc(C(F)(F)F)c(-c3c[nH]c4c(P(C)(C)=O)c(C#N)ccc34)n2)CN1 (stereo not given) + Cc1nc(NC(=O)N2CCCC2C(N)=O)sc1-c1ccnc(C(C)(C)C(F)(F)F)c1 ... c2
C[C@@H](NC(=O)c1ncnc(N)c1Cl)c1ncc(C(=O)Nc2cc(C(F)(F)F)c(Cl)cn2)s1 + CC(Nc1ccc2c(c1)OCCn1cc(N3C(=O)OCC3C(F)F)nc1-2)C(N)=O ... c2
Cn1ncc(Cl)c1-c1cc(C(=O)NC(CN)Cc2cccc(F)c2)sc1Cl (stereo not given) + COc1c(OCCCN2CCOCC2)ccc2c3n(c(=NC(=O)c4cnc(N)nc4)nc12)CCN3 ... c1
CNC(=O)c1ccc(N2C(=S)N(c3ccc(C#N)c(C(F)(F)F)c3)C(=O)C2(C)C)cc1F + CC(Nc1ncnc2nc[nH]c12)c1cc2cccc(Cl)c2c(=O)n1-c1ccccc1 ... c3
CC1(C)CCC(CN2CCN(c3ccc(C(=O)NS(=O)(=O)c4ccc(NCC5CCOCC5)c([N+](=O)[O-])c4)c(Oc4cnc5[nH]ccc5c4)c3)CC2)=C(c2ccc(Cl)cc2)C1 + Cc1nc(NC(=O)N2CCCC2C(N)=O)sc1-c1ccnc(C(C)(C)C(F)(F)F)c1 ... c2
C#Cc1c(F)ccc2cc(O)cc(-c3ncc4c(N5CC6CCC(C5)N6)nc(OCC56CCCN5CC(F)C6)nc4c3F)c12 (stereo not given) + Cc1nc(NC(=O)N2CCCC2C(N)=O)sc1-c1ccnc(C(C)(C)C(F)(F)F)c1 ... c1

Assign a category based on measured viability, T/C for C=CC(=O)N1CCN(c2nc(=O)n(-c3c(C)ccnc3C(C)C)c3nc(-c4c(O)cccc4F)c(F)cc23)C(C)C1 (stereo not given) + CC(Nc1ncnc2nc[nH]c12)c1cc2cccc(Cl)c2c(=O)n1-c1ccccc1 and give only the class name.
c3

Class? Entry: CNC(=O)c1ccc(N2C(=S)N(c3ccc(C#N)c(C(F)(F)F)c3)C(=O)C2(C)C)cc1F + CC(Nc1ccc2c(c1)OCCn1cc(N3C(=O)OCC3C(F)F)nc1-2)C(N)=O
c2

// bin(item) where item = C=CC(=O)N1CCN(c2nc(=O)n(-c3c(C)ccnc3C(C)C)c3nc(-c4c(O)cccc4F)c(F)cc23)C(C)C1 (stereo not given) + Cc1nc(NC(=O)N2CCCC2C(N)=O)sc1-c1ccnc(C(C)(C)C(F)(F)F)c1
c3

----------
- Test system: 931267-113-T-J1-PDC multicell spheroid viability
- protocolDescription: Anticancer human tumor 931267-113-T-J1-PDC cell line growth inhibition [PI3K];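 further: viability read 7 days after compound addition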
- conditionSummary: second compound 1 µM; first compound 0.3 µM; hits give low values
- Description: Combinatorial screen of targeted agents with the PI3K inhibitors inavolisib, alpelisib, duvelisib, and copanlisib in multi-cell type tumor spheroids A high-throughput screen of multi-cell type tumor spheroids was designed to identify active combinations of targeted small molecules and PI3K pathway inhibitors. […] Compounds. […] If the clinical Cmax for an agent had not been determined, the highest concentration tested was 10 microM. […]
For each record, write down the corresponding viability, T/C.
One number for each entry, in %.

Cn1cnc2c(F)c(Nc3ccc(Br)cc3Cl)c(C(=O)NOCCO)cc21 + CC(Nc1ccc2c(c1)OCCn1cc(N3C(=O)OCC3C(F)F)nc1-2)C(N)=O ... 15.9

Okay, here is my list. What is viability, T/C for each of these?
1. Cn1cnc2c(F)c(Nc3ccc(Br)cc3Cl)c(C(=O)NOCCO)cc21 + COc1c(OCCCN2CCOCC2)ccc2c3n(c(=NC(=O)c4cnc(N)nc4)nc12)CCN3
2. Cn1cnc2c(F)c(Nc3ccc(Br)cc3Cl)c(C(=O)NOCCO)cc21 + Cc1nc(NC(=O)N2CCCC2C(N)=O)sc1-c1ccnc(C(C)(C)C(F)(F)F)c1

1: 4.72; 2: 20.8

For the molecule shown here, Cn1cnc2c(F)c(Nc3ccc(Br)cc3Cl)c(C(=O)NOCCO)cc21 + CC(Nc1ncnc2nc[nH]c12)c1cc2cccc(Cl)c2c(=O)n1-c1ccccc1 , give the reported viability, T/C.
32.3

----------
- System: 931267-113-T-J1-PDC multicell spheroid viability
- protocolDescription: Anticancer human tumor 931267-113-T-J1-PDC cell line growth inhibition [PI3K];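 further: viability read 7 days after compound addition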
- conditionSummary: second compound 0.316 µM; first compound 0.1 µM; hits give low values
measuredParameter: viability, T/C (%)
One number for each entry, in %.

Below: 5 molecules and their reported viability, T/C.
Cn1ncc(Cl)c1-c1cc(C(=O)NC(CN)Cc2cccc(F)c2)sc1Cl (stereo unspecified) + CC(Nc1ccc2c(c1)OCCn1cc(N3C(=O)OCC3C(F)F)nc1-2)C(N)=O ... 94.4
CNC(=O)c1ccc(N2C(=S)N(c3ccc(C#N)c(C(F)(F)F)c3)C(=O)C2(C)C)cc1F + CC(Nc1ncnc2nc[nH]c12)c1cc2cccc(Cl)c2c(=O)n1-c1ccccc1 ... 104
CC(C)NCC(C(=O)N1CCN(c2ncnc3c2C(C)CC3O)CC1)c1ccc(Cl)cc1 (stereo unspecified) + Cc1nc(NC(=O)N2CCCC2C(N)=O)sc1-c1ccnc(C(C)(C)C(F)(F)F)c1 ... 89.6
CCN1CCN(Cc2ccc(Nc3ncc(F)c(-c4cc(F)c5nc(C)n(C(C)C)c5c4)n3)nc2)CC1 + CC(Nc1ncnc2nc[nH]c12)c1cc2cccc(Cl)c2c(=O)n1-c1ccccc1 ... 98.5
CC(C)NCC(C(=O)N1CCN(c2ncnc3c2C(C)CC3O)CC1)c1ccc(Cl)cc1 (stereo unspecified) + COc1c(OCCCN2CCOCC2)ccc2c3n(c(=NC(=O)c4cnc(N)nc4)nc12)CCN3 ... 44.8

Record request: viability, T/C value, item Cn1ncc(Cl)c1-c1cc(C(=O)NC(CN)Cc2cccc(F)c2)sc1Cl (stereo unspecified) + CC(Nc1ncnc2nc[nH]c12)c1cc2cccc(Cl)c2c(=O)n1-c1ccccc1
109

----------
- System: 931267-113-T-J1-PDC multicell spheroid viability
- protocolDescription: Anticancer human tumor 931267-113-T-J1-PDC cell line growth inhibition [PI3K]; active = viability on the fitted dose curve at most 10% of control; inactive = the rest;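 further: viability read 7 days after compound addition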
- conditionSummary: second compound 1 µM; first compound 0.0949 µM
The reply should name one outcome from TRUE (active), FALSE (inactive)

Cn1cnc2c(F)c(Nc3ccc(Br)cc3Cl)c(C(=O)NOCCO)cc21 + COc1c(OCCCN2CCOCC2)ccc2c3n(c(=NC(=O)c4cnc(N)nc4)nc12)CCN3 ... TRUE
Cn1cnc2c(F)c(Nc3ccc(Br)cc3Cl)c(C(=O)NOCCO)cc21 + Cc1nc(NC(=O)N2CCCC2C(N)=O)sc1-c1ccnc(C(C)(C)C(F)(F)F)c1 ... FALSE
Cn1cnc2c(F)c(Nc3ccc(Br)cc3Cl)c(C(=O)NOCCO)cc21 + CC(Nc1ccc2c(c1)OCCn1cc(N3C(=O)OCC3C(F)F)nc1-2)C(N)=O ... FALSE

For the next question, use this compound.
Just curious, what result did Cn1cnc2c(F)c(Nc3ccc(Br)cc3Cl)c(C(=O)NOCCO)cc21 + CC(Nc1ncnc2nc[nH]c12)c1cc2cccc(Cl)c2c(=O)n1-c1ccccc1 get here?
FALSE

----------
- Test system: 931267-113-T-J1-PDC multicell spheroid viability
- protocolDescription: Anticancer human tumor 931267-113-T-J1-PDC cell line growth inhibition [PI3K];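 further: viability read 7 days after compound addition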
- conditionSummary: second compound 3.16 µM; first compound 1 µM; hits give low values
measuredParameter: viability, T/C

Batch request: viability, T/C per item, same order as input.
1. C=CC(=O)N1CCN(c2nc(=O)n(-c3c(C)ccnc3C(C)C)c3nc(-c4c(O)cccc4F)c(F)cc23)C(C)C1 (stereo not drawn) + Cc1nc(NC(=O)N2CCCC2C(N)=O)sc1-c1ccnc(C(C)(C)C(F)(F)F)c1
2. CCCS(=O)(=O)Nc1ccc(F)c(C(=O)c2c[nH]c3ncc(-c4ccc(Cl)cc4)cc23)c1F + Cc1nc(NC(=O)N2CCCC2C(N)=O)sc1-c1ccnc(C(C)(C)C(F)(F)F)c1
3. CC1(C)CCC(Nc2ncc(C(F)(F)F)c(-c3c[nH]c4c(P(C)(C)=O)c(C#N)ccc34)n2)CN1 (stereo not drawn) + Cc1nc(NC(=O)N2CCCC2C(N)=O)sc1-c1ccnc(C(C)(C)C(F)(F)F)c1

1. 72.7%
2. 72.5%
3. 63.2%

Could you tell me viability, T/C for each of these molecules? They are listed below.
1. Cn1nccc1Nc1nccc(-c2ccn(C(CO)c3ccc(Cl)c(F)c3)c(=O)c2)n1 (stereo not drawn) + Cc1nc(NC(=O)N2CCCC2C(N)=O)sc1-c1ccnc(C(C)(C)C(F)(F)F)c1
2. C#Cc1c(F)ccc2cc(O)cc(-c3ncc4c(N5CC6CCC(C5)N6)nc(OCC56CCCN5CC(F)C6)nc4c3F)c12 (stereo not drawn) + Cc1nc(NC(=O)N2CCCC2C(N)=O)sc1-c1ccnc(C(C)(C)C(F)(F)F)c1
3. CC1(C)CCC(CN2CCN(c3ccc(C(=O)NS(=O)(=O)c4ccc(NCC5CCOCC5)c([N+](=O)[O-])c4)c(Oc4cnc5[nH]ccc5c4)c3)CC2)=C(c2ccc(Cl)cc2)C1 + Cc1nc(NC(=O)N2CCCC2C(N)=O)sc1-c1ccnc(C(C)(C)C(F)(F)F)c1
4. Cn1ncc(Cl)c1-c1cc(C(=O)NC(CN)Cc2cccc(F)c2)sc1Cl (stereo not drawn) + CC(Nc1ncnc2nc[nH]c12)c1cc2cccc(Cl)c2c(=O)n1-c1ccccc1
5. CC1(C)CCC(CN2CCN(c3ccc(C(=O)NS(=O)(=O)c4ccc(NCC5CCOCC5)c([N+](=O)[O-])c4)c(Oc4cnc5[nH]ccc5c4)c3)CC2)=C(c2ccc(Cl)cc2)C1 + CC(Nc1ncnc2nc[nH]c12)c1cc2cccc(Cl)c2c(=O)n1-c1ccccc1

1. 43.6%
2. 21.2%
3. 70.6%
4. 86.9%
5. 107%
